Where do these numbers come from? They come from patent US10703733B2.

Test System: MCL-1/Bim interaction (recombinant human MCL-1 protein, residues 171-327; biotinylated human Bim peptide, residues 51-76) (Homo sapiens (Human))
Assay Overview: MCL-1/Bim Binding AlphaLISA Assay
Stated Conditions: 0.0625 nM 6xHis-Mcl-1 (171-327), 0.0625 nM biotinylated-Bim peptide
Measurement Kind: pIC50
Interpret pIC50 as the negative base-10 log of the concentration measured in mol/L.

Entry under review: CO[C@H]1/C=C/C[C@H](C)C[S@@](=O)(NC(=O)N[C@H]2C[C@@]2(C)OC)=NC(=O)c2ccc3c(c2)N(C[C@@H]2CC[C@H]21)C[C@@]1(CCCc2cc(Cl)ccc21)CO3 (single isomer, unassigned) . Reported pIC50?
10.19

Then this molecule: COC[C@@H]1CCN(C(=O)N[S@@]2(=O)=NC(=O)c3ccc4c(c3)N(C[C@@H]3CC[C@H]3[C@@H](OC)/C=C/C[C@H](C)C2)C[C@@]2(CCCc3cc(Cl)ccc32)CO4)C1
9.79

Then this molecule: CO[C@H]1/C=C/CCC[S@@](=O)(NC(=O)CCCC(F)(F)F)=NC(=O)c2ccc3c(c2)N(C[C@@H]2CC[C@H]21)C[C@@]1(CCCc2cc(Cl)ccc21)CO3
8.96

Then this molecule: CO[C@H]1/C=C/C[C@H](C)C[S@@](=O)(NC(=O)N2CC(CC(F)F)C2)=NC(=O)c2ccc3c(c2)N(C[C@@H]2CC[C@H]21)C[C@@]1(CCCc2cc(Cl)ccc21)CO3
10.21

Then this molecule: CO[C@H]1/C=C/CCC[S@](N)(=O)=NC(=O)c2ccc3c(c2)N(C[C@@H]2CC[C@H]21)C[C@@]1(CCCc2cc(Cl)ccc21)CO3
7.56

* * *

Test System: MCL-1/Bim interaction (recombinant human MCL-1 protein, residues 171-327; biotinylated human Bim peptide, residues 51-76) (Homo sapiens (Human))
Assay Overview: MCL-1/Bim Binding AlphaLISA Assay
Stated Conditions: 0.0625 nM 6xHis-Mcl-1 (171-327), 0.0625 nM biotinylated-Bim peptide
For each of the compounds below, state its pIC50.
Interpret pIC50 as the negative base-10 log of the concentration measured in mol/L.

Entry under review: CO[C@H]1/C=C/CCC[S@@](=O)(NC(=O)CCc2scnc2C)=NC(=O)c2ccc3c(c2)N(C[C@@H]2CC[C@H]21)C[C@@]1(CCCc2cc(Cl)ccc21)CO3 [Example 93] . Reported pIC50?
7.29

Then this compound: CO[C@H]1/C=C/C[C@H](C)C[S@@](=O)(NC(=O)N2CC(CO)(OC)C2)=NC(=O)c2ccc3c(c2)N(C[C@@H]2CC[C@H]21)C[C@@]1(CCCc2cc(Cl)ccc21)CO3 [Example 267]
10.52

Then this compound: CCN(C)C(=O)N[S@@]1(=O)=NC(=O)c2ccc3c(c2)N(C[C@@H]2CC[C@H]2[C@@H](OC)/C=C/CCC1)C[C@@]1(CCCc2cc(Cl)ccc21)CO3 [Example 77]
8.28

Then this compound: COC1CN(C(=O)N[S@@]2(=O)=NC(=O)c3ccc4c(c3)N(C[C@@H]3CC[C@H]3[C@@H](OC)/C=C/[C@H](OC)[C@H](C)C2)C[C@@]2(CCCc3cc(Cl)ccc32)CO4)C1 [Example 375]
10.34

Then this compound: CO[C@H]1/C=C/C[C@H](C)C[S@@](=O)(NC(=O)N2CCN(CC#N)CC2)=NC(=O)c2ccc3c(c2)N(C[C@@H]2CC[C@H]21)C[C@@]1(CCCc2cc(Cl)ccc21)CO3 [Example 270]
10.39

* * *

For each of the compounds below, state its IC50.
Test System: MCL-1/Bim interaction (recombinant human MCL-1 protein, residues 171-327; biotinylated human Bim peptide, residues 51-76) (Homo sapiens (Human))
Assay Overview: MCL-1/Bim Binding AlphaLISA Assay
Stated Conditions: 0.0625 nM 6xHis-Mcl-1 (171-327), 0.0625 nM biotinylated-Bim peptide
Your answer is read as nM, so omit the unit and give the number.

Entry under review: CO[C@H]1/C=C/C[C@H](C)C[S@@](=O)(NC(=O)c2cc(CN3CCOCC3)n(C)c2)=NC(=O)c2ccc3c(c2)N(C[C@@H]2CC[C@H]21)C[C@@]1(CCCc2cc(Cl)ccc21)CO3 . Reported IC50?
0.031

Then this compound: CO[C@H]1/C=C/C[C@H](C)C[S@@](=O)(NC(=O)c2cnn(CC3CC3)c2)=NC(=O)c2ccc3c(c2)N(C[C@@H]2CC[C@H]21)C[C@@]1(CCCc2cc(Cl)ccc21)CO3
0.186

Then this compound: CO[C@H]1/C=C/C[C@H](C)C[S@@](=O)(NC(=O)N2CC3(CN(C)C(=O)O3)C2)=NC(=O)c2ccc3c(c2)N(C[C@@H]2CC[C@H]21)C[C@@]1(CCCc2cc(Cl)ccc21)CO3
0.018

Then this compound: CC[C@@H]1CC/C=C/[C@H](OC)[C@@H]2CC[C@H]2CN2C[C@@]3(CCCc4cc(Cl)ccc43)COc3ccc(cc32)C(=O)N=S1(=O)NC(=O)CCc1ccnn1C (single isomer, unassigned)
0.7

Then this compound: COC[C@H]1Cn2cc(C(=O)N[S@@]3(=O)=NC(=O)c4ccc5c(c4)N(C[C@@H]4CC[C@H]4[C@@H](O)/C=C/C[C@H](C)[C@H]3C)C[C@@]3(CCCc4cc(Cl)ccc43)CO5)cc2CO1
0.049

* * *

Test System: MCL-1/Bim interaction (recombinant human MCL-1 protein, residues 171-327; biotinylated human Bim peptide, residues 51-76) (Homo sapiens (Human), UniProt Q07820)
Sequence (Q07820 171-327): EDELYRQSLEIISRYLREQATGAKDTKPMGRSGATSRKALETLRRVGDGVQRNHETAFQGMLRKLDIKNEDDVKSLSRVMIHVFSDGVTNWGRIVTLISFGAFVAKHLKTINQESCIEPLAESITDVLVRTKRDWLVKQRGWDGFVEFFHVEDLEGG
Assay Overview: MCL-1/Bim Binding AlphaLISA Assay
Stated Conditions: 0.0625 nM 6xHis-Mcl-1 (171-327), 0.0625 nM biotinylated-Bim peptide
Measurement Kind: IC50 (nM)
Your answer is read as nM, so omit the unit and give the number.

Entry under review: COc1nn(C)cc1C(=O)N[S@@]1(=O)=NC(=O)c2ccc3c(c2)N(C[C@@H]2CC[C@H]2[C@@H](OCCN2CCOCC2)/C=C/C[C@H](C)C1)C[C@@]1(CCCc2cc(Cl)ccc21)CO3 . Reported IC50?
0.086

Then this molecule: COC1CCN(c2nn(C)cc2C(=O)N[S@@]2(=O)=NC(=O)c3ccc4c(c3)N(C[C@@H]3CC[C@H]3[C@@H](OC)/C=C/C[C@H](C)C2)C[C@@]2(CCCc3cc(Cl)ccc32)CO4)CC1
4.54

Then this molecule: CO[C@H]1/C=C/CCC[S@@](=O)(NC(=O)CCc2ccncn2)=NC(=O)c2ccc3c(c2)N(C[C@@H]2CC[C@H]21)C[C@@]1(CCCc2cc(Cl)ccc21)CO3
0.2

Then this molecule: CO[C@H]1/C=C/CCC[S@@](=O)(NC(=O)CCc2ccnn2CC(F)(F)F)=NC(=O)c2ccc3c(c2)N(C[C@@H]2CC[C@H]21)C[C@@]1(CCCc2cc(Cl)ccc21)CO3
0.1

Then this molecule: CO[C@H]1/C=C/C[C@H](C)C[S@@](=O)(NC(=O)N[C@H]2C[C@@H]2CN2CCOCC2)=NC(=O)c2ccc3c(c2)N(C[C@@H]2CC[C@H]21)C[C@@]1(CCCc2cc(Cl)ccc21)CO3
0.049

* * *

For each of the compounds below, state its pIC50.
Test System: MCL-1/Bim interaction (recombinant human MCL-1 protein, residues 171-327; biotinylated human Bim peptide, residues 51-76) (Homo sapiens (Human), UniProt Q07820)
Assay Overview: MCL-1/Bim Binding AlphaLISA Assay
Stated Conditions: 0.0625 nM 6xHis-Mcl-1 (171-327), 0.0625 nM biotinylated-Bim peptide
Interpret pIC50 as the negative base-10 log of the concentration measured in mol/L.

Entry under review: CCO[C@H]1/C=C/[C@H](OC)[C@@H]2CC[C@H]2CN2C[C@@]3(CCCc4cc(Cl)ccc43)COc3ccc(cc32)C(=O)N=[S@](=O)(NC(=O)c2cn(C)nc2OC)C[C@H]1C . Reported pIC50?
10.28

Then this compound: CO[C@H]1/C=C/C[C@H](C)C[S@@](=O)(NC(=O)C2Cc3cccnc3C2)=NC(=O)c2ccc3c(c2)N(C[C@@H]2CC[C@H]21)C[C@@]1(CCCc2cc(Cl)ccc21)CO3 (stereo partly shown)
10.14

Then this compound: CO[C@H]1/C=C/C[C@H](C)C[S@@](=O)(NC(=O)N[C@H]2C[C@H]2C)=NC(=O)c2ccc3c(c2)N(C[C@@H]2CC[C@H]21)C[C@@]1(CCCc2cc(Cl)ccc21)CO3
10.06

Then this compound: CO[C@H]1/C=C/C[C@H](C)C[S@@](=O)(NC(=O)[C@H]2CCOC2)=NC(=O)c2ccc3c(c2)N(C[C@@H]2CC[C@H]21)C[C@@]1(CCCc2cc(Cl)ccc21)CO3
9.98

Then this compound: COC1CN(C2CN(C(=O)N[S@@]3(=O)=NC(=O)c4ccc5c(c4)N(C[C@@H]4CC[C@H]4[C@@H](OC)/C=C/C[C@H](C)C3)C[C@@]3(CCCc4cc(Cl)ccc43)CO5)C2)C1
10.43

Then this compound: CO[C@H]1/C=C/C[C@H](C)C[S@@](=O)(NC(=O)N[C@H]2C[C@@H]2C(F)(F)F)=NC(=O)c2ccc3c(c2)N(C[C@@H]2CC[C@H]21)C[C@@]1(CCCc2cc(Cl)ccc21)CO3
10.23

Then this compound: CO[C@H]1/C=C/CCC[S@](=O)(NC(=O)N2CCS(=O)(=O)CC2)=NC(=O)c2ccc3c(c2)N(C[C@@H]2CC[C@H]21)C[C@@]1(CCCc2cc(Cl)ccc21)CO3
8.14

Then this compound: COCC1(O)CN(C(=O)N[S@@]2(=O)=NC(=O)c3ccc4c(c3)N(C[C@@H]3CC[C@H]3[C@@H](OC)/C=C/C[C@H](C)C2)C[C@@]2(CCCc3cc(Cl)ccc32)CO4)C1
10.24

Then this compound: CO[C@H]1/C=C/C[C@H](C)C[S@@](=O)(NC(=O)c2cc(C)sn2)=NC(=O)c2ccc3c(c2)N(C[C@@H]2CC[C@H]21)C[C@@]1(CCCc2cc(Cl)ccc21)CO3
10.00

Then this compound: CO[C@H]1/C=C/CCC[S@@](=O)(NC(=O)CCc2cnoc2)=NC(=O)c2ccc3c(c2)N(C[C@@H]2CC[C@H]21)C[C@@]1(CCCc2cc(Cl)ccc21)CO3
9.70
